Test: Efflux Rattus norvegicus (rat)io of apparent permeability from basal to apical side over apical to basal side of Sprague-Dawley Rattus norvegicus (rat) duodenum sac at 500 ug/ml by HPLC method
Assay type: ADME
PROPERTY: efflux ratio at 500 ug/ml

• CC(C)[C@H]1CC[C@H](C(=O)N[C@@H](Cc2ccccc2)C(=O)O)CC1 [(S)-NATEGLINIDE] = 1.4
• CC(C)[C@H]1CC[C@H](C(=O)N[C@H](Cc2ccccc2)C(=O)O)CC1 [NATEGLINIDE] = 1.6

----------
Assay: Apparent permeability across basal to apical side of Sprague-Dawley Rattus norvegicus (rat) everted jejunum sac at 500 ug/ml by HPLC method
Format: ADME, tissue-based
PROPERTY: Papp B→A at 500 ug/ml (×10⁻⁶ cm/s)

• CC(C)[C@H]1CC[C@H](C(=O)N[C@H](Cc2ccccc2)C(=O)O)CC1 [NATEGLINIDE] = 240
• CC(C)[C@H]1CC[C@H](C(=O)N[C@@H](Cc2ccccc2)C(=O)O)CC1 [(S)-NATEGLINIDE] = 220
